Values from PubChem BioAssay (NCI)

Tested on: HCT-116 colon
Assay: NCI-60 one-dose screen, 48 h (100 = growth as untreated, 0 = no growth, -100 = all killed)
Conditions: 10 µM unless noted
The panel holds about 83,000 compounds, 20% with a hit somewhere; the sample as a whole holds those more often.
The entries below come with measured growth values attached.
Expressed in %, but write only the number.

Please review the following examples before continuing.
compound	measured
Cc1ccc2c(N)c(C(=O)Nc3ccc(OC(F)(F)F)cc3)sc2n1	58.8
COc1cc2oc(-c3cccc(C(=O)Nc4ccc(Cl)cc4)c3)cc(=O)c2c(OCCNC(=O)[C@H](CCC(=O)OC(C)(C)C)NC(=O)OC(C)(C)C)c1OC	95.6
N#Cc1c(-c2ccccc2Cl)cc(-c2ccc3ccccc3c2)[nH]c1=O	17.9
C=C1CC[C@@H]2[C@]3(C)COC(c4cn[nH]c4-c4ccc(F)cc4)O[C@@H]3CC[C@@]2(C)[C@@H]1C/C=C1/C(=O)OCC1O (some centres not stated)	-88.9

Query: growth; subject: Cc1cc(=O)oc2cc(OCCCCOc3ccc(/C=C/C(=O)Nc4ccccc4N)cc3)ccc12
Response: 45.6

Query: Now this one: COc1cccc(-c2c(C#N)c(-c3ccc(Cl)cc3)nc3n[nH]c(-c4ccc(Cl)cc4)c23)c1
Response: 20.6
